Values from ChEMBL document CHEMBL5360622

Reported IC50 for target or system Cyclin-dependent kinase 5/CDK5 activator 1 (Homo sapiens, UniProt Q00535), by entry.

As a guide, the following entries are already answered.
Which IC50 reading was recorded for the molecule `Cc1nc2ccc(/C=C3\N=C(NC45CC6CC(CC(C6)C4)C5)NC3=O)cc2s1` ?
> 10 µM

Value lookup for IC50; key = `O=C1NC(Nc2ccc(F)cc2)=N/C1=C\c1ccc2ncsc2c1`
> 10 µM

Can you share its IC50? I mean this molecule: `CC(C)[C@@H]1CC[C@@H](C)C[C@H]1NC1=N/C(=C\c2ccc3ncsc3c2)C(=O)N1`
> 10 µM

---
Which measured IC50 value corresponds to O=C1NC(NC2CCCC(F)(F)C2)=N/C1=C\c1ccc2ncsc2c1 (racemic) ?
2.38 µM

Bench note: what IC50 did COC(=O)[C@@H](NC1=N/C(=C\c2ccc3ncsc3c2)C(=O)N1)C(C)O (stereo not given in full) show?
> 10 µM
